B1: HDV Ribozyme (parent)
chain: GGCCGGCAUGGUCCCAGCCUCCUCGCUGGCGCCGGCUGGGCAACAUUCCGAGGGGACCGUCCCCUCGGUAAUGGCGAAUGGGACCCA

variants of: B1; assay: self-cleavage, relative activity (ratio to wild type); higher = more cleavage; co-transcriptional
Assign 1 whenever self-cleavage does not fall below 0.5; assign -1 whenever it does.

Worked examples follow.
Exercise: hey, is self-cleavage for this one >= 0.5? `GGCCGGCAUGGUCACAGCCUCCUCGCUGGCGCCGGCUGGGCAACAUUCCGAGGGGACCGUCCCCUCGGUAAUGGCGAAUGGGCCCCA`
Key: -1

Exercise: hey, is self-cleavage for this one >= 0.5? `GGCCGGCAUGGUCCCAGCCUCCUCGCUGGCGCUGGCUGGGCAACAUUCCGAGGGGCCCGUCCCCUCGGUAAUGGCGAAUGGGACCCA`
Key: 1

Exercise: hey, is self-cleavage for this one >= 0.5? `GGCCGGCAUGGUCCCAGCCUCCUCGCUGUCGCCGGCUGGGCAACAUUCCGAGGGGAACGUCCCCUCGGUAAUGGCGAAUGGGACCCA`
Key: -1

---
Exercise: hey, is self-cleavage for this one >= 0.5? `GGCCGGCAUGGUCCCAGCCUCCUCGGUGGCGCCGGCUGGGCAACAUACCGAGGGGACCGUCCCCUCGGUAAUGGCGAAUGGGACCCA`
Key: 1

Exercise: hey, is self-cleavage for this one >= 0.5? `GGCCGGCCUGGUCCCAGCCUACUCGCUGGCGCCGGCUGGGCAACAUUCCGAGGGGACCGUCCCCUCGGUAAUGGCGAAUGGGACCCA`
Key: -1

Exercise: hey, is self-cleavage for this one >= 0.5? `GGCCGGCAUGGUCCCAGCCUCUUCGCUGGCGCCGGCUGGGCAACAUUCCGAGGGGACCAUCCCCUCGGUAAUGGCGAAUGGGACCCA`
Key: 1

Exercise: hey, is self-cleavage for this one >= 0.5? `GGCCGGCAUGGUCCCAGCCUCCUCGCUGGCGUCGGCUGGGCAACGUUCCGAGGGGACCGUCCCCUCGGUAAUGGCGAAUGGGACCCA`
Key: 1

Exercise: hey, is self-cleavage for this one >= 0.5? `GGCCGGCAUGGUCCCAGCCUCCUCGCUGGCGCCGGCUGUGCAACAUUCCGAUGGGACCGUCCCCUCGGUAAUGGCGAAUGGGACCCA`
Key: 1

Exercise: hey, is self-cleavage for this one >= 0.5? `GGCCGGCAUGGUCCCAGCCUCCUCGCUGGCGCCGGCUGGGCAUCAUUCCGAGGGGAACGUCCCCUCGGUAAUGGCGAAUGGGACCCA`
Key: 1

Exercise: hey, is self-cleavage for this one >= 0.5? `GGCCGGCAUGGUCCCAGCCUCCUCGCUGGCGCCGGCUGGGCAUCAUUCCGAGGGGACCGUCCCCUCGCUAAUGGCGAAUGGGACCCA`
Key: -1

Origin of measurements: the RNAGym collection of RNA variant scans (doi:10.7554/elife.80360)
